Target: H3R (Homo sapiens, UniProt Q9Y5N1)
Sequence (Q9Y5N1 whole entry, species assumed): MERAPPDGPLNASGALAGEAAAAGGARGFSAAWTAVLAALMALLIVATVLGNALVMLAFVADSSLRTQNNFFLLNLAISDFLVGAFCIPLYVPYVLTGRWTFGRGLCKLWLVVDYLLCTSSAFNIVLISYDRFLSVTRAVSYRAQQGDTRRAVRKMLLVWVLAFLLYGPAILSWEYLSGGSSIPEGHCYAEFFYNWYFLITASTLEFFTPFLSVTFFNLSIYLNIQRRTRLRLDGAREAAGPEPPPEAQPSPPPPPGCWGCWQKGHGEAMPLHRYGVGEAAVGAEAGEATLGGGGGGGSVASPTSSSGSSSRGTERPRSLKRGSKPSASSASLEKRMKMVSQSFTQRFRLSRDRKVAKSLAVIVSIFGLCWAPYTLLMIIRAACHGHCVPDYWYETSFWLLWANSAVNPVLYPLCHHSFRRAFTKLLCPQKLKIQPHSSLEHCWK
Settings: selectivity index, ratio of Ki H4R/H3R
Overview of recorded SI H4R/H3R (Ki) for various molecules
Simply state the number, no unit and no words.

molecule="Cc1ccc2c(c1)CC(CN1CCN(C)CC1)O2 (centres unmarked) [1f]" study_target="H3R (Homo sapiens, UniProt Q9Y5N1)" quantitative_readout=14

Could you now consider this next molecule?
Prompt line: State its SI H4R/H3R (Ki) for this molecule: CN1CCN(CC2Cc3cc(Cl)ccc3O2)CC1 (centres unmarked) [1e]
Response line: 1.1

* * *

Target: H4R (Homo sapiens)
Construct: expressed in transfected cells; host or cells: HEK293T
Sequence (Q9H3N8 whole entry, species assumed): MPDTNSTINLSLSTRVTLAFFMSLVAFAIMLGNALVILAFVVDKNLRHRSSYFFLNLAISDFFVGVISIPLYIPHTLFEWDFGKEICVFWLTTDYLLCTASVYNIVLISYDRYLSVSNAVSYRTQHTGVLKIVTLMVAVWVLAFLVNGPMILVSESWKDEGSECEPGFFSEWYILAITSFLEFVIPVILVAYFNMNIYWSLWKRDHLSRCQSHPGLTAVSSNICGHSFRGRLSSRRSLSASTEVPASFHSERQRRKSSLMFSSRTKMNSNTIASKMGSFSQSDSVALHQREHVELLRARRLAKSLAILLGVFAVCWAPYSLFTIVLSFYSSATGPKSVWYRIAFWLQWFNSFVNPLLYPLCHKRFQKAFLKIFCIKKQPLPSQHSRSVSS
Test: Competition binding assay with [3H]-histamine in HEK293T cells transiently expressing H4R
Conditions: read-out: H4R Ki / binding affinity
quantity_name: Ki

Prompt line: Hello, please tell me recorded Ki for this one: Cc1ccc2c(c1)CC(CN1CCN(C)CC1)O2 (stereo not shown)
Response line: ~10 µM

* * *

H3R (Homo sapiens) measurements of Ki, listed per entry.
Answer with a number only, understood to be in µM.

molecule="COc1ccc2c(c1)CC(CN1CCN(C)CC1)O2 (stereo not shown)" quantity_name=Ki quantitative_readout=0.871

Now take the following molecule into account.
Prompt line: Query Ki for Cc1ccc2c(c1)CC(CN1CCN(C)CC1)O2 (stereo not shown)
Response line: 0.708

* * *

Molecular target: H3R (Homo sapiens)
Conditions: selectivity index, ratio of Ki H4R/H3R
quantity_name: SI H4R/H3R (Ki)

As a guide, the following entries are already answered.
compound="C=CCN1CCN(CC2Cc3ccccc3O2)CC1 (stereo not drawn) [1c]" study_target="H3R (Homo sapiens)" quantity_name="SI H4R/H3R (Ki)" result=>25
compound="CN1CCN(CC2Cc3cc(C(C)(C)C)ccc3O2)CC1 (stereo not drawn) [1h]" study_target="H3R (Homo sapiens)" quantity_name="SI H4R/H3R (Ki)" result="> 11"

Prompt line: # return recorded SI H4R/H3R (Ki) for input COc1ccc2c(c1)CC(CN1CCN(C)CC1)O2 (stereo not drawn) [1g]
Response line: >11
